Target: CD73 (ecto-5′-nucleotidase) (Mus musculus, UniProt Q61503)
Sequence (Q61503 29-551): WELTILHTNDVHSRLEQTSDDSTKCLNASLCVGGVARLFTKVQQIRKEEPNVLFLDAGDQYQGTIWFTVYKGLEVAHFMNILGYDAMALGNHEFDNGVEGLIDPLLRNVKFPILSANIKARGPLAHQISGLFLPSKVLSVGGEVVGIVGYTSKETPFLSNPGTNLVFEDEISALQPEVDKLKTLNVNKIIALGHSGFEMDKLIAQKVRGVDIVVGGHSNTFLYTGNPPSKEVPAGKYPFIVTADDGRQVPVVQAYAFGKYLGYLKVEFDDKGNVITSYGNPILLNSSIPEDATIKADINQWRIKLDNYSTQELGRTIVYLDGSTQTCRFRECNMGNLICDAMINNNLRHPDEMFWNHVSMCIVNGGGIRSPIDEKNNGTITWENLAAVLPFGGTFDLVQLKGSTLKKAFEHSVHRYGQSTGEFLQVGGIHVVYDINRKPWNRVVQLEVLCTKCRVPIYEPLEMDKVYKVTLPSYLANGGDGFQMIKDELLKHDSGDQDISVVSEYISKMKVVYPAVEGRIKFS
Test Readout: pIC50
Recall that pIC50 is obtained by taking minus log10 of the concentration measured in molar.

Any idea what pIC50 was measured for "C[C@H](Nc1cc(Cl)nc2c1cnn2[C@@H]1O[C@H](COP(=O)(O)CP(=O)(O)O)[C@@H](O)[C@H]1O)c1ccccc1F" ?
9.15

The measurements presented in this section are drawn from paper PMC9381133.
